Provide the recorded kd for the entries that follow.
# subject-of-test: hT40 (Homo sapiens, UniProt P10636)
# Sequence (P10636 1-441 isoform P10636-8): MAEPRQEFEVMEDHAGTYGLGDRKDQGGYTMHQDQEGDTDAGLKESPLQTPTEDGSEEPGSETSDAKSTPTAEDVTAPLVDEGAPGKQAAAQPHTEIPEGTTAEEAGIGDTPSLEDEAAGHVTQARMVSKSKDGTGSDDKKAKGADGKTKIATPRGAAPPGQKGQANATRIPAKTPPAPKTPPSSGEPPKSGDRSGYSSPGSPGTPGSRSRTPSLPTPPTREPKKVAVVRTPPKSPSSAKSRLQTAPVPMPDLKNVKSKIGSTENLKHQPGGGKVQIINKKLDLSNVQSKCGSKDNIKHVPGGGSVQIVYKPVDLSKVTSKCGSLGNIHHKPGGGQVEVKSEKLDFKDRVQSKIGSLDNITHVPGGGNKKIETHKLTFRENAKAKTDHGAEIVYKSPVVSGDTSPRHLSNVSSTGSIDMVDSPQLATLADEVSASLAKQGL
# protocol: Biacore X100 SPR, scAb captured via anti-HuCk, hT40 as analyte
# Format: binding
# assay-conditions: '3a' and '3b' scAbs, Table 25, hT40
# output: bare number, implied unit s⁻¹

Input: Form field: reported kd of 3bF4: anti-tau clone, SEQ ID NO: 421 (protein, 3bF4 amino acid sequence) scFv: QVQLQESGPSLVKPSQTLSLTCTVSGFSLSSNGVGWVRQAPGKVPEWLGDISSVGKKYANPALKSRLSFTRDTSKSQVSLSLSSVTTEDTAVYYCVKCRDGGVTYGYDIDYWGPGLLVTVSSEGKSSGASGESKVDDQAVLTQPSSVSKSTGQTVSITCSGSSSNVGLRNYVTWFQQVPGSAPKLLIYGATSRASGIPDRFSGSRSGNTATLIISSLQAEDEADYYCASADTNDGGVFGSGTRLTVLG
Output: 0.01532

Input: Form field: reported kd of 3aG3: anti-tau clone, SEQ ID NO: 424 (protein, 3aG3 amino acid sequence) scFv: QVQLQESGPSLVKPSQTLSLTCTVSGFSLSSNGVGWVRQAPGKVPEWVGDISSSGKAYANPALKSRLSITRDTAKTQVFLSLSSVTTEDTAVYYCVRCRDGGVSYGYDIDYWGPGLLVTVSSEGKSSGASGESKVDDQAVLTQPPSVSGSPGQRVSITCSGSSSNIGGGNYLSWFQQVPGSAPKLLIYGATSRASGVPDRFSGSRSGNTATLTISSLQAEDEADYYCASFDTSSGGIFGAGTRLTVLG
Output: 0.0003869

Input: Form field: reported kd of 3aB7: anti-tau clone, SEQ ID NO: 420 (protein, 3aB7 amino acid sequence) scFv: QVQLQESGPSLVKPSQTLSLTCTVSGFSLTSNGVGWVRQAPGKVPEWVGDKSSAGKTYGNPALKSRLSITRDTSKSQVSLSLSSVTTEDTAVYYCVRCRDGGVTYGYDVDYWGPGLLVTVSSEGKSSGASGESKVDDQAVLTQPSSVSKSLGQSVSITCSGSSSNVGYGDVVSWFQQFPGSAPKLLIFGTTTRASGVPDRFSGSRSGNAATLTINSLQAEDEADYYCASFDSDSGGIAGSGTRLTVLG
Output: 0.01435

Input: Form field: reported kd of 3aD3: anti-tau clone, SEQ ID NO: 422 (protein, 3aD3 amino acid sequence) scFv: QVQLQESGPSLVKPSQTLSLTCTVSGFSLTSNGVGWVRRAPGKVPEWVGDISSGGKVYGHPALKSRLSITRDTSKSQVSLSVSSVTSEDTAVYYCVRCRDGGVSYGYDSDYWGPGLLVTVSSEGKSSGASGESKVDDQAVVTQPSSVSKSLGQSVSITCSGSSSNVGYGDYVGWFQQVPGSAPKLLIYGVTERASGVPDRFSGSRSGNTATLTISSIQAEDEADYYCASYDDSSGGIFGSGTRLTVLG
Output: 0.01038

Input: Form field: reported kd of 3bG4: anti-tau clone, SEQ ID NO: 425 (protein, 3bG4 amino acid sequence) scFv: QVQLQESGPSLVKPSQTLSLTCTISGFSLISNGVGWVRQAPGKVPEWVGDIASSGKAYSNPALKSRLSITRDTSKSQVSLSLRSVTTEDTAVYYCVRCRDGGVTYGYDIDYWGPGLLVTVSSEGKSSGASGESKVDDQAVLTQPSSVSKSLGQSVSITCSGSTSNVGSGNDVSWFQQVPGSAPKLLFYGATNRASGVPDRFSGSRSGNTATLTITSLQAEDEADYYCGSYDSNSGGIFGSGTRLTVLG
Output: 0.05966
